Ref: patent US20260193344A1

Please provide measured IC50, ACTH 1-24 induced cAMP, MC2R cells for the entries that follow.
- Target: T1, ACTH 1-24 (human)
- T1 peptide: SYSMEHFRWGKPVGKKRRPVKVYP
- Measurement protocol: cell-based or functional assay
Please don't drop the unit; write it after the number.

Here is how some binders turned out for IC50, ACTH 1-24 induced cAMP, MC2R cells.
Ab6 (antibody, V domains shown) VH: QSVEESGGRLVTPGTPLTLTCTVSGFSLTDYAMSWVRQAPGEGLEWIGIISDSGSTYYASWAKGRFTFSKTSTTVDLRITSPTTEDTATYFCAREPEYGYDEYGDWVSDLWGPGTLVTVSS VL: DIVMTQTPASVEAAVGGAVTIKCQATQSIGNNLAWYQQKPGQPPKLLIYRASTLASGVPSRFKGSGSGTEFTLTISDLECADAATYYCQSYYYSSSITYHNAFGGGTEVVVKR | 0.1 nM
Ab13.H (antibody, human IgG1, kappa, N297A, V domains shown) VH: EVQLVESGGGLVQPGGSLRLSCAASGFTVSSGYDICWVRQAPGKGLEWIGCIDTGSGNTYYASSAKGRFTMSRDNSKNTVYLQMNSLRAEDTAVYYCAKGISSIWGQGTLVTVSS VL: DIQMTQSPSTLSASVGDRVTITCQASQTISSDLAWYQQKPGKAPKLLIYAASKLTSGVPSRFSGSGSGTEFTLTISSLQPDDFATYYCQTYYDIIDDGATFGGGTKVEIKR | 0.3 nM

Next up:
[in] Input Ab3 (antibody, V domains shown) VH: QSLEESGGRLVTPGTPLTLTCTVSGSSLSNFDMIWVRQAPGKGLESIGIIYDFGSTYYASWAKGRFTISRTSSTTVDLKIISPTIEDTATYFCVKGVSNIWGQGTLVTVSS VL: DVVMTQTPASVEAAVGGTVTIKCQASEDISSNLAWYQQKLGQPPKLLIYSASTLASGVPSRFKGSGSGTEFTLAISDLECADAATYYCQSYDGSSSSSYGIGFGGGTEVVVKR , output reported IC50, ACTH 1-24 induced cAMP, MC2R cells.
[out] 0.8 nM
